# Test system: K562
# test-protocol: NCI tumour cell line growth inhibition, 48 h
Calls of active or inactive are those of the source. No stated cut-off is given here; in the data, active = GI50 up to about 1.1 µM and inactive = higher.
Use one of these outcomes when replying: true = active, false = inactive

Worked examples, 2 compounds total:
compound: O=C(c1cccs1)N(C(=S)N1CCN(c2ccccn2)CC1)C1CCCCC1
cat: false
//
compound: C=C1CCC2CC1C(C(=O)c1c[nH]c3ccccc13)=NC2(C)C (stereo not given)
cat: false

# lookup: test call for N#C/C(c1nc2ccccc2[nH]1)=c1\s/c(=C/c2ccccc2)c(=O)n1-c1ccccc1 false

Recorded call for O=C1C(NCCO)=C(N2CC2)C(=O)C(NCCO)=C1N1CC1 ? false

Which outcome was entered for the compound O=[N+]([O-])c1ccc(Cl)cc1N/N=C/c1ccnc2ccccc12 in this test? false

Hi, do you know how CCOc1ccc(NCc2cc(OC)c(OC)c(OC)c2)cc1 came out in this test? true

What did this assay record as the result for Cc1c2ccccc2c(C2C3C(=O)N(c4cccc5ccccc45)C(=O)C3ON2Cc2ccc(CC(N)=O)cc2)c2ccccc12 (stereo not given) ? false

Recorded test outcome, item COC(=O)Nc1nc2cc(NS(=O)(=O)c3cccs3)ccc2[nH]1 false

Assay outcome for CCN1N=CSC12C(=O)N(c1ccccc1)C(=O)N2c1ccccc1 (stereo not given) : what was it? false

Assay outcome for O=C(O)CCCc1ccc2c(c1)CC1(C2)Cc2cc3c(cc2C1)CCCC3 : what was it? false

----------
# Test system: SNB-75
# test-protocol: NCI tumour cell line growth inhibition, 48 h
The source made the active and inactive calls. Rule as the data show it: active = GI50 up to about 1.1 µM and inactive = higher. Where a SMILES comes first, the peptide text is derived from it. [ ]: non-standard residue; d: D form. The star is where a group is joined. ξ: configuration not given here. ξD = NC(CC(=O)O)C(=O)O; Boc = CC(C)(C)OC(=O)*; Aib = CC(C)(N)C(=O)O; OtBu = CC(C)(C)O*
Pick one: active, inactive

compound: NCCCC(N)C(=O)O (stereo unspecified)
system-under-test: SNB-75
cat: inactive
--
compound: CC(=O)C1Cn2c(=O)c3cc4ccccc4cc3c(=O)n2C=C1C (stereo unspecified)
system-under-test: SNB-75
cat: inactive
--
compound: CC1=Nc2c(ccc3c2C(=O)c2ccccc2C3=O)NC(c2cccc3c2CCC3)C1 (stereo unspecified)
system-under-test: SNB-75
cat: inactive
--
compound: CC1=C(C)C(=O)C2=C(OCCCO2)C1=O
system-under-test: SNB-75
cat: inactive
--
compound: C=C1CCC2CC1C(C(=O)c1c[nH]c3ccccc13)=NC2(C)C (stereo unspecified)
system-under-test: SNB-75
cat: inactive

Please state the recorded outcome for this compound: O=C1N[C@H]2c3c(Cl)sc(Cl)c3C(=O)[C@H]2O1 inactive

What classification did COC(=O)C(CC(=O)Nc1ccc(C)cc1)C(=O)C(=O)Nc1ccccc1C(C)C (stereo unspecified) end up with in this test? inactive

What call does the record list for COC(=O)C(C)(C)NC(=O)C(C)(C)NC(=O)C(CC(=O)OC(C)(C)C)NC(=O)OC(C)(C)C (stereo unspecified) (Boc-[ξD](OtBu)-[Aib]-[Aib]-OMe) ? inactive

Returns: the outcome recorded for Clc1cc(Cc2cc(Cl)c(Cl)c3c2OCOC3)c2c(c1Cl)COCO2 in this assay. inactive

Short answer needed: outcome of this test for Cc1cc2c3c(coc3c1-c1c(C)cc3c4c(coc14)C(=O)C(O)=C3C(C)C)C(=O)C(O)=C2C(C)C ? inactive

For C/C(=N\O)c1ccc(OCc2cc(C(F)(F)F)cc(C(F)(F)F)c2)cc1 , what call appears in the results of this test? inactive

Dear all, I need the recorded test outcome for O=C(N/N=C/c1cccc(O)c1O)N/N=C/c1cccc(O)c1O , thank you. inactive

Test call for this compound, please: NC(=O)CCC(NCc1c2ccccc2[n+]([O-])c2ccccc12)C(=O)O (stereo unspecified) inactive

Could you check what this test reported for NC(=S)N/N=C1\C(=O)C=C(Nc2ccc(Cl)cc2Cl)c2ccccc21 ? inactive

Can you look up the reported call for CCOc1ccc(NCc2cc(OC)c(OC)c(OC)c2)cc1 for me? active

Give the logged outcome of this assay for the following compound: CCCC1C[C@H]2CCCCN2[C@H]2CCCN12 (stereo partly specified) inactive

# fetch the recorded call for COC(=O)c1nn2ccc3ccccc3c2c1C(=O)OC here inactive

Record request — test call for COc1ccc(S(=O)(=O)N(CC(=O)O)c2ccccc2)cc1 inactive

Hi, do you know how Cc1cc(=O)oc2c(C)c(O)ccc12 came out in this test? inactive

Identify the outcome logged in this assay for the compound shown: CC1=C(C(=O)Nc2cc(F)c(F)cc2F)C(c2cccc([N+](=O)[O-])c2)C(C(=O)Nc2ccccc2C(F)(F)F)=C(C)N1 (stereo unspecified) inactive

Could you please tell me the result logged for C=CC(C)(C)n1cc(C2=C3OC(=O)C(c4cn(C(C)(C)C=C)c5ccccc45)=C3OC2=O)c2ccccc21 in this assay? inactive

// provenance: ChEMBL document CHEMBL1201862
